Biological target: T1, human GIPR (human), P48546
T1 chain: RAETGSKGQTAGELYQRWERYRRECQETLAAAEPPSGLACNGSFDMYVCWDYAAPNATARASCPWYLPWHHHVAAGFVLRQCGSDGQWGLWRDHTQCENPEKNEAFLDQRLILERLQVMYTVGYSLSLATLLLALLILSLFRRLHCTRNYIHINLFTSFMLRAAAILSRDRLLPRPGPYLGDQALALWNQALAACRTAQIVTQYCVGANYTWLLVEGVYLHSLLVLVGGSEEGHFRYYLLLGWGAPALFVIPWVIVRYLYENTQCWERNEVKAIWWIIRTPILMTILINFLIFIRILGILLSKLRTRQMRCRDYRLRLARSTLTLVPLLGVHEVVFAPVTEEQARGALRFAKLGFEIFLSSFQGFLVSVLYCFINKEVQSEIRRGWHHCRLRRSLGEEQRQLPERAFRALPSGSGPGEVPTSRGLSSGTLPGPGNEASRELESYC
Non-standard residues stand in square brackets, D forms with d. Groups on a side chain read outwards from the residue. Primed or numbered codes have the meaning given here. No end group written: not given here. *: point of attachment. NMeY = CN[C@@H](Cc1ccc(O)cc1)C(=O)O; αMeF = C[C@](N)(Cc1ccccc1)C(=O)O; Lauroyl = CCCCCCCCCCCC(=O)*; dIva = CC[C@@](C)(N)C(=O)O; Iva = CC[C@](C)(N)C(=O)O; Aib = CC(C)(N)C(=O)O
The entries below come with measured Agonist activity (EC50, M) values attached.
Express your answer in M, writing the number without its unit.

# count of solved cases: 3
Me-Y[Aib]EGTFISDYSI[dIva]LDRIHQ[Aib]NFVNW[Iva]LAQRPSSGAPPPSR (not fully specified (residue 1, C-terminus); ends and bridges not checked) [Compound 147] = 1.5e-12
[NMeY][Aib]EGTFISDYSI[dIva]LDR[Aib]AQQD[αMeF]VNWLLAQRPSSGAPPPSR (ends and bridges not checked) [Compound 81] = 1.5e-12
Y[Aib]EGTFISDYSK([PEG(2)-Lauroyl])[dIva]LDRIAQQDFVNWLLAQRPSSGAPPPSR (ends and bridges not checked) [Compound 199] = 3.4e-11

Okay, next one:
Sure, the documented Agonist activity (EC50, M) for Y[Aib]EGTFISDYSK([PEG(2)-Lauroyl])ALDRIHQQDFVNWLLAQRPSSGAPPPS (ends and bridges not checked) [Compound 175] is 3.5e-12
